Biological target: KRAS G12V (Homo sapiens, UniProt P01116+P62937, G12V)
Sequence (P01116 1-169 isoform P01116-2 G12V limits assumed): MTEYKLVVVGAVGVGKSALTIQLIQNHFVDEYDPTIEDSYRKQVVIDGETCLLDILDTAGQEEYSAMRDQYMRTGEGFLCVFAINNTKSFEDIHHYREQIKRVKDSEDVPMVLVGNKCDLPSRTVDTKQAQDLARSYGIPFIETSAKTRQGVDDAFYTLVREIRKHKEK
Sequence (P62937 whole entry): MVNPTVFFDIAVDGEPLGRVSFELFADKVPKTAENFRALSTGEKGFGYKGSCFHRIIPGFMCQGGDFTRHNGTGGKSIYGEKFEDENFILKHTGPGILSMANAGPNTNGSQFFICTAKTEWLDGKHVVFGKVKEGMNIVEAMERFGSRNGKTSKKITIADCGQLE
Assay: Disruption of BRAF RBD interaction with Ras (FRET / MOA assay, with Cyclophilin A)
Type: biochemical
Conditions: KRAS G12V; read-out: KRAS G12V FRET data IC50
# IC50 per record follows

Below, 5 compounds whose answers are already recorded.
INSERT INTO results (compound, parameter, value_reported) VALUES
  ('CCn1c(-c2cccnc2[C@H](C)OC)c2c3cc(ccc31)-c1csc(n1)C[C@H](NC(=O)[C@H](C(C)C)N(C)C(=O)N1C[C@H](OC)[C@@H](N)C1)C(=O)N1CCC[C@H](N1)C(=O)OCC(C)(C)C2 (atropisomer, axis not shown) [Example A580]', 'IC50', '0.1 to 1 µM'),
  ('CCn1c(-c2cccnc2[C@H](C)OC)c2c3cc(ccc31)-c1cc(O)cc(c1)C[C@H](NC(=O)[C@H](C(C)C)N(C)C(=O)[C@H]1C[C@@H]1O)C(=O)N1CCC[C@H](N1)C(=O)OCC(C)(C)C2 (single isomer, unassigned) [Example A346]', 'IC50', '0.1 to 1 µM'),
  ('CCn1c(-c2cnccc2COC)c2c3cc(ccc31)-c1cc(O)cc(c1)C[C@H](NC(=O)[C@H](C(C)C)N(C)C(=O)O[C@H]1CCOC1)C(=O)N1CCC[C@H](N1)C(=O)OCC(C)(C)C2 [Example A260]', 'IC50', '1 to 10 µM'),
  ('CCn1c(-c2cccnc2[C@H](C)OC)c2c3cc(ccc31)-c1csc(n1)C[C@H](NC(=O)[C@@H](OC(=O)N1CC(N(C)C)C1)C(C)C)C(=O)N1CCC[C@H](N1)C(=O)OCC(C)(C)C2 [Example A339]', 'IC50', '1 to 10 µM'),
  ('C=CC(=O)N1CC[C@H](C(=O)N(C)[C@H](C(=O)N[C@H]2Cc3nc(cs3)-c3ccc4c(c3)c(c(-c3cccnc3COC)n4CC)CC(C)(C)COC(=O)[C@@H]3CCCN(N3)C2=O)C(C)C)C1 [Example A094]', 'IC50', '> 10 µM');

IN: Give IC50 for CCn1c(-c2cc(N3CCN(C)CC3)cnc2[C@H](C)OC)c2c3cc(ccc31)-c1cc(O)cc(c1)C[C@H](NC(=O)[C@H](C(C)C)N(C)C(=O)[C@@H]1OCC[C@@H]1c1ccccc1)C(=O)N1CCC[C@H](N1)C(=O)OCC(C)(C)C2 (atropisomer, axis not shown) [Example A594]
OUT: 0.01 to 0.1 µM

IN: Give IC50 for CCn1c(-c2cccnc2[C@H](C)OC)c2c3cc(ccc31)-c1csc(n1)C[C@H](NC(=O)[C@H](C(C)C)N1CCC3(CN(C)C3)C1=O)C(=O)N1CCC[C@H](N1)C(=O)OCC(C)(C)C2 [Example A222]
OUT: > 10 µM

IN: Give IC50 for CCn1c(-c2cccnc2[C@H](C)OC)c2c3cc(ccc31)-c1cc(O)cc(c1)C[C@H](NC(=O)[C@H](C(C)C)N(C)C(=O)C1CCC(C3CCCO3)O1)C(=O)N1CCC[C@H](N1)C(=O)OCC(C)(C)C2 (some centres unmarked) [Example A396]
OUT: 0.01 to 0.1 µM

IN: Give IC50 for CCn1c(-c2cccnc2[C@H](C)OC)c2c3cc(ccc31)-c1csc(n1)C[C@H](NC(=O)[C@H](C(C)C)N(C)C(=O)N1CCN(C)C3(CC3)C1)C(=O)N1CCC[C@H](N1)C(=O)OCC(C)(C)C2 [Example A311]
OUT: 0.1 to 1 µM

IN: Give IC50 for C=CC(=O)N1CC(OC[C@H](C(=O)N[C@H]2Cc3cccc(c3)-c3ccc4c(c3)c(c(-c3cccnc3[C@H](C)OC)n4CC(F)(F)F)CC(C)(C)COC(=O)[C@@H]3CCCN(N3)C2=O)C(C)C)C1 [Example A453]
OUT: > 10 µM

* * *

Biological target: NRAS Q61K (Homo sapiens, UniProt P01111+P62937, Q61K)
Sequence (P01111 whole entry Q61K): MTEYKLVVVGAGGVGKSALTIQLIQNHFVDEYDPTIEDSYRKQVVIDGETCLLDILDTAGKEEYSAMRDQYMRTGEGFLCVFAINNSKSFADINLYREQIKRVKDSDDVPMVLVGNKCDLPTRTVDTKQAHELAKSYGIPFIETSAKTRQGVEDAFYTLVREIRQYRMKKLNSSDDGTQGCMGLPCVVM
Sequence (P62937 whole entry): as the sequence (P62937 whole entry) above
Assay: Ras-Raf disruption / FRET / MOA assay (BRAF RBD)
Type: biochemical
Conditions: NRAS Q61K; read-out: NRAS Q61K FRET data IC50
# IC50 per record follows

Below, 4 compounds whose answers are already recorded.
INSERT INTO results (compound, value_reported) VALUES
  ('CCn1c(-c2cccnc2[C@H](C)OC)c2c3cc(ccc31)-c1csc(n1)C[C@H](NC(=O)[C@H](C(C)C)N(C)C(=O)N(C)C1CN(C(=O)[C@@H]3CN3)C1)C(=O)N1CCC[C@H](N1)C(=O)OCC(C)(C)C2', '100 to 1000 nM'),
  ('CCn1c(-c2cccnc2[C@H](C)OC)c2c3cc(ccc31)-c1cc(O)cc(c1)C[C@H](NC(=O)[C@H](C(C)C)N(C)C(=O)[C@H]1C[C@H]3CC[C@@H](C1)N3C(=O)[C@H]1CN1)C(=O)N1CCC[C@H](N1)C(=O)OCC(C)(C)C2 (atropisomer, axis not shown)', '100 to 1000 nM'),
  ('CCn1c(-c2cccnc2[C@H](C)OC)c2c3cc(ccc31)-c1cc(O)cc(c1)C[C@H](NC(=O)[C@H](C(C)C)N(C)C(=O)[C@@H]1CCN(C(=O)[C@H]3CN3)C1)C(=O)N1CCC[C@H](N1)C(=O)OCC(C)(C)C2 (atropisomer, axis not shown)', '100 to 1000 nM'),
  ('CCn1c(-c2cccnc2[C@H](C)OC)c2c3cc(ccc31)-c1csc(n1)C[C@H](NC(=O)[C@H](C(C)C)N(C)C(=O)N(C)CCN(C)C(=O)[C@H]1CN1)C(=O)N1CCC[C@H](N1)C(=O)OCC(C)(C)C2 (atropisomer, axis not shown)', '10 to 100 nM');

IN: Give IC50 for CCn1c(-c2cccnc2[C@H](C)OC)c2c3cc(ccc31)-c1cc(O)cc(c1)C[C@H](NC(=O)[C@H](C(C)C)N(C)C(=O)[C@H]1CCN(C(=O)[C@H]3CN3)[C@H]1C)C(=O)N1CCC[C@H](N1)C(=O)OCC(C)(C)C2 (atropisomer, axis not shown)
OUT: 1000 to 10000 nM

* * *

# pIC50 per record follows
Target: KRAS G12D (Homo sapiens, UniProt P01116+P62937, G12D)
Sequence (P01116 1-169 isoform P01116-2 G12D limits assumed): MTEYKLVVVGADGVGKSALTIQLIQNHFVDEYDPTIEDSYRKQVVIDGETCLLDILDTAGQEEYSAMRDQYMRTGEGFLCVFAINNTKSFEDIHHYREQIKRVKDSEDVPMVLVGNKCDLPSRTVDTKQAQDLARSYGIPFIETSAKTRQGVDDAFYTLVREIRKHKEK
Sequence (P62937 whole entry): as the sequence (P62937 whole entry) above
Experiment: Ras-Raf disruption / FRET / MOA assay (BRAF RBD)
Type: biochemical
Settings: KRAS G12D FRET data IC50, Ras-Raf disruption, with Cyclophilin A
pIC50: −log10 of the molar value.

INSERT INTO assay_data (molecule, tested_on, parameter, value_reported) VALUES
  ('CCn1c(-c2cccnc2[C@H](C)OC)c2c3cc(ccc31)-c1cc(O)cc(c1)C[C@H](NC(=O)[C@H](C(C)C)N(C)C(=O)CN(C)C(=O)[C@@H]1N[C@@H]1C1CCC1)C(=O)N1CCC[C@H](N1)C(=O)OCC(C)(C)C2 [Example 287]', 'KRAS G12D (Homo sapiens, UniProt P01116+P62937, G12D)', 'pIC50', '7.00 to 8.00'),
  ('CCn1c(-c2cccnc2[C@H](C)OC)c2c3cc(ccc31)-c1cc(O)cc(c1)C[C@H](NC(=O)[C@H](C(C)C)N(C)C(=O)CN(C)C(=O)[C@H]1CN1)C(=O)N1CCC[C@H](N1)C(=O)OCC(C)(C)C2 (single isomer, unassigned) [Example 42A]', 'KRAS G12D (Homo sapiens, UniProt P01116+P62937, G12D)', 'pIC50', '7.00 to 8.00'),
  ('CCn1c(-c2cccnc2[C@H](C)OC)c2c3cc(ccc31)-c1cc(O)cc(c1)C[C@H](NC(=O)[C@H](C(C)C)N(C)C(=O)[C@H]1CCCN1C(=O)[C@H]1CN1)C(=O)N1CCC[C@H](N1)C(=O)OCC(C)(C)C2 [Example 152]', 'KRAS G12D (Homo sapiens, UniProt P01116+P62937, G12D)', 'pIC50', '6.00 to 7.00');

IN: For KRAS G12D (Homo sapiens, UniProt P01116+P62937, G12D), give the measured pIC50 of the entry CCn1c(-c2cccnc2[C@H](C)OC)c2c3cc(ccc31)-c1cc(O)cc(c1)C[C@H](NC(=O)[C@H](C(C)C)N(C)C(=O)CN(C)C(=O)[C@@H]1N[C@@H]1C(F)(F)F)C(=O)N1CCC[C@H](N1)C(=O)OCC(C)(C)C2 [Example 258]
OUT: 7.00 to 8.00

* * *

Molecular target: KRAS Q61H (Homo sapiens, UniProt P01116+P62937, Q61H)
Sequence (P01116 1-169 isoform P01116-2 Q61H limits assumed): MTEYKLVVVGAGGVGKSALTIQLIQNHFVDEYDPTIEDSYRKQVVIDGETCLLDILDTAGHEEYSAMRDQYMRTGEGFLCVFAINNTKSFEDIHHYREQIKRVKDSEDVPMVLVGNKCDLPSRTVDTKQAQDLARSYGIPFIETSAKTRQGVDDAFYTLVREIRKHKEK
Sequence (P62937 whole entry): as the sequence (P62937 whole entry) above
Experiment: Disruption of BRAF RBD interaction with Ras (FRET / MOA assay, with Cyclophilin A)
Assay type: biochemical
Settings: KRAS Q61H; read-out: KRAS Q61H FRET data IC50
# IC50 per record follows

INSERT INTO measurements (compound, tested_on, value_reported) VALUES
  ('CCn1c(-c2cc(N3CCN(C)CC3)cnc2[C@H](C)OC)c2c3cc(ccc31)-c1csc(n1)C[C@H](NC(C)=O)C(=O)N1CCC[C@H](N1)C(=O)OCC(C)(C)C2 (atropisomer, axis not shown) [Example A340]', 'KRAS Q61H (Homo sapiens, UniProt P01116+P62937, Q61H)', '> 10000 nM');

Turning now to a further record.
IN: For KRAS Q61H (Homo sapiens, UniProt P01116+P62937, Q61H), give the measured IC50 of the entry CCn1c(-c2cc(C3CCN(C)CC3)cnc2[C@H](C)OC)c2c3cc(ccc31)-c1csc(n1)C[C@H](NC(=O)[C@H](C(C)C)N(C)C(=O)N(C)C)C(=O)N1CCC[C@H](N1)C(=O)OCC(C)(C)C2 (atropisomer, axis not shown) [Example A484]
OUT: 10 to 100 nM
